The values you see were collected from PubChem BioAssay (NCI).

Test system: RXF 393 renal
Test: NCI-60 one-dose screen, 48 h (100 = growth as untreated, 0 = no growth, -100 = all killed)
Conditions: 10 µM unless noted
Method: Cells are grown in 96 well plates and exposed to the test compound for 48 hours. Compounds are tested at a single concentration, which is 10^-5 M for most compounds. The reported endpoint is percent growth (GI% or GIPRCNT), where numbers from 0 - 100% represent growth inhibition, and numbers from -100% - 0 represent cell death. For example, a value of 40 represents 60% growth inhibition. A value of 0 means no net growth occurred over the course of the experiment. […]
About 83,000 compounds went through this panel and 20% of them were active in at least one assay; those are over-represented in the sample as a whole. Calls of active or inactive are those of the source. How the source made its calls: active means growth percent below 10; inactive means the rest.
metric: growth

>>> print(df.to_string())
                                   compound  metric          reported
0  NC1=NC(c2ccccc2)N=C(Nc2ccccc2)N1 (stereo not drawn)  growth  91.5% (inactive)

growth reading for CC(=O)c1cc2ccccc2o1 : 119% (inactive)

growth reading for COC(=O)c1nc(=S)[nH]c(C(=O)OC)c1C(=O)c1ccc(OC)cc1 : 108% (inactive)

====

tested on: IGROV1 ovarian; experiment: NCI-60 one-dose screen, 48 h (100 = growth as untreated, 0 = no growth, -100 = all killed); settings: 10 µM unless noted
About 83,000 compounds went through this panel and 20% of them were active in at least one assay; those are over-represented in the sample as a whole.
metric: growth (%)
Could you give me the number in %? Just the number is fine.

Please review the entries below; each comes with its answer.
                                   compound  reported
0                Clc1ccc2sc(-c3ccccc3)nc2c1       101
1                          NNC(=O)Nc1ccccc1       102
2                                      OCCS       110
3          CCCC(=O)OCC(COC(=O)CCC)OC(=O)CCC       105
4               Cc1ccc(S(=O)(=O)n2ccnc2)cc1      75.5
5                                 CCOC(C)=N       151
6            CC1=CC(=O)c2cccc(NC3=NCCO3)c21       104
7  COc1cc(C2c3cc4c(cc3C(OC(=O)C[n+]3ccccc3)C3COC(=O)C23)OCO4)cc(OC)c1OC (stereo unspecified)      16.5
8                     CCc1ccc(OC(=O)CCl)cc1       108
9                      O=C1Cc2ccccc2C(=O)N1      76.8

growth reading for COc1ccc2nccc(Cl)c2c1 : 105

growth reading for O=C(c1ccc(Cl)cc1)C1C(c2ccccc2)C1[N+](=O)[O-] (stereo unspecified) : 103

growth reading for COc1ccc(CCn2cnn3c(=O)c4ccccc4nc3c2=O)cc1OC : 115

growth reading for CCN(CC)CCO/N=C1\CC(c2ccc(OC)c(OC)c2)Oc2ccccc21 (stereo unspecified) : 88.8

growth reading for O=C(O)COc1ccccc1F : 105

growth reading for COc1cc2oc3cc(=O)cc4oc(-c5ccccc5)cc(c2c2c1CCC(c1ccccc1)O2)c43 (stereo unspecified) : 70.3

====

system: NCI/ADR-RES ovarian; assay: NCI-60 one-dose screen, 48 h (100 = growth as untreated, 0 = no growth, -100 = all killed); settings: 10 µM unless noted
About 83,000 compounds went through this panel and 20% of them were active in at least one assay; those are over-represented in the sample as a whole.
metric: growth (%)
Could you give me the number in %? Just the number is fine.

>>> df
                                   compound  reported
0  O=[N+]([O-])c1ccc(N/N=C/C2CCCCCC2)c([N+](=O)[O-])c1       104
1        CC(C)(C)C1=CC(=O)C(C(C)(C)C)=CC1=O       108

growth reading for CN(C)CC(CN(C)C)C(O)c1ccccc1 (stereo unspecified) : 100

growth reading for Nc1nc(-c2ccccn2)cc(-c2cc(-c3ccccn3)nc(N)n2)n1 : 107

====

Test system: NCI-H23 lung
Test: NCI-60 one-dose screen, 48 h
Details: 10 µM unless noted
Description: Growth inhibition of the NCI-H23 human Non-Small Cell Lung tumor cell line is measured as a screen for anti-cancer activity. Cells are grown in 96 well plates and exposed to the test compound for 48 hours. Compounds are tested at a single concentration, which is 10^-5 M for most compounds. The reported endpoint is percent growth (GI% or GIPRCNT), where numbers from 0 - 100% represent growth inhibition, and numbers from -100% - 0 represent cell death. […]
The panel holds about 83,000 compounds, 20% with a hit somewhere; the sample as a whole holds those more often. Calls of active or inactive are those of the source. Rule for the calls: active = growth percent below 10; inactive = the rest.
The reply should name one outcome from active, inactive

Study these solved cases before continuing.
In [3]: df
Out[3]:
                                   molecule  labelvalue
0  O=C1C2=C(Nc3cc(Cl)ccc3N2)OC1c1c[nH]c2ccc(COc3ccccc3)cc12 (stereo not drawn)    inactive
1  CC1NC(C)c2ccc3ccccc3c2O1 (stereo not drawn)    inactive
2                  CCNC1=CC(=O)c2ncccc2C1=O      active

Request: // param item: CCC/C(=N/NC(N)=O)c1ccco1 ; yields the recorded call
Response: inactive

Request: // param item: CCOC(=O)CN1CCC(C(=O)OCC)CC1 ; yields the recorded call
Response: inactive

====

test system: SK-MEL-28 melanoma; assay: NCI-60 one-dose screen, 48 h (100 = growth as untreated, 0 = no growth, -100 = all killed); details: 10 µM unless noted
Compounds without any hit were thinned out: in the full panel of roughly 83,000, 20% have a hit. Calls of active or inactive are those of the source. The calls were made as follows: active = growth percent below 10; inactive = the rest.
In this section we review reported growth values for a set of compounds.

Please review the entries below; each comes with its answer.
                    compound  metric         reported
0  C/C=C(/C(=O)NC(N)=O)C(C)C  growth  117% (inactive)
1    CCCC(=O)Oc1ccc2ccccc2c1  growth  114% (inactive)
2      CC(=O)Nc1cscc1NC(C)=O  growth  104% (inactive)

growth reading for N=C(N)N1CCc2ccccc2C1 : 109% (inactive)

growth reading for O=[N+]([O-])c1ccc(N/N=C/C2CCCCCC2)c([N+](=O)[O-])c1 : 99.7% (inactive)

growth reading for O=C1c2cccnc2-c2ncccc21 : 119% [100 µM] (inactive)

====

test system: SK-MEL-5 melanoma; experiment: NCI-60 one-dose screen, 48 h; conditions: 10 µM unless noted
This is part of a sample that, as a whole, favours compounds with a hit. Of some 83,000 tested, about 20% had one in any assay. Activity calls are given as the source filed them. The calls were made as follows: active = growth percent below 10; inactive = the rest.
The reply should name one outcome from active, inactive

Study these solved cases before continuing.
In [3]: df
Out[3]:
                                   molecule  labelvalue
0  CC(=O)/C(N=Nc1ccc(S(=O)(=O)c2ccc(N=N/C(C(C)=O)=C(/C)O)cc2)cc1)=C(\C)O    inactive
1  OC1CCCN(Cc2ccccc2)C1 (centres undefined)    inactive
2  CC(O)CCNC(c1ccccc1)C(O)c1ccccc1 (centres undefined)    inactive
3  CC1CC(O)CC(C)(C)C1.CC1CC(O)CC(C)(C)C1.CC1CC(O)CC(C)(C)C1.CC1CC(O)CC(C)(C)C1.[Ti] (centres undefined)    inactive
4                               OCc1ccccc1F    inactive

Request: // param item: Cc1nc2c(=O)[nH]c(=S)[nH]c2[nH]c1=O ; yields the recorded call
Response: inactive

Request: // param item: Nc1c(Cl)cc2c(c1Br)C(=O)c1ccccc1C2=O ; yields the recorded call
Response: inactive

Request: // param item: CC1(C)OC(=O)C(=Cc2ccc(C#N)cc2)C(=O)O1 ; yields the recorded call
Response: inactive

Request: // param item: COc1ccc2oc3c(ccc[n+]3C)c(=O)c2c1 ; yields the recorded call
Response: inactive

Request: // param item: COC(=O)c1nc(=S)[nH]c(C(=O)OC)c1C(=O)c1ccccc1 ; yields the recorded call
Response: inactive

Request: // param item: CCN(C)c1ccccc1 ; yields the recorded call
Response: inactive

Request: // param item: CCN(CC)C(CC(=O)c1ccccc1)C(=O)c1ccccc1 (centres undefined) ; yields the recorded call
Response: inactive

Request: // param item: C/C(=C\c1ccccc1)C(O)C(=O)c1nc2ccc([N+](=O)[O-])cc2[nH]c1=O (centres undefined) ; yields the recorded call
Response: inactive
